experiment: change in splice reporter luminescence, either direction, cell-based, HEK293, spliceosome inhibition project, primary screen (AID 1101); details: HEK293 splicing luciferase reporter, 24 h, higher = more signal, called active from +8 up or from −8 down;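 further: HEK293 cells carrying a splicing-competent luciferase reporter gene; test concentration not given here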
Classify by measured z-score: MET if it is equal to or exceeds -1, NOT MET if it is smaller.

>>> cat("CCOC(=O)C[C@H]1[C@H](OC(=O)Cc2ccc3c(c2)OCO3)[C@@H](NC(=O)c2ccc3ccccc3n2)c2cc(OCCCO)ccc2N1C(=O)c1ccc2ccccc2n1")
"NOT MET"
>>> cat("CCOC(=O)C[C@H]1[C@H](OC(=O)c2ccc(C(=O)c3ccccc3)cc2)[C@@H](NC(=O)CC(C)C)c2cc(OCCCO)ccc2N1C(=O)c1ccccc1")
"MET"
>>> cat("C=CCC(OC(C)=O)[C@@H]1[C@@H](N(Cc2ccc(-c3cccc(C(F)(F)F)c3)o2)C(=O)c2ccc(-c3ccccc3)cc2)c2cc(OCCCO)ccc2N1C(=O)Cc1ccc2ccccc2c1 (some centres not stated)")
"MET"
>>> cat("O=c1cccc(-c2ccc([N+](=O)[O-])cc2)o1")
"NOT MET"
>>> cat("CCCCC(CC)C(O)C1C=CC2C(=O)N(C)C(=O)C2N1Nc1ccccc1 (configuration not stated)")
"MET"
>>> cat("C[N+](C)(C)CCCCCCNC(=O)[C@@H]1C[C@@H]2C(=O)N3CCC[C@H]3C(=O)N2[C@@H]1c1ccc(O)cc1")
"MET"
>>> cat("OCCCC1=CC(c2ccc(CN3CCCC3)cc2)N(Cc2cc3c(cc2Br)OCO3)CC1 (configuration not stated)")
"MET"
